Source of measurements: PubChem BioAssay (NCI)

- Tested on: HL-60(TB) leukemia
- Test Protocol: NCI tumour cell line growth inhibition, 48 h
# TGI values compiled below
Reported Property: TGI

[
  {
    "Molecule": "C[N+](C)(CCCn1ccnc1[N+](=O)[O-])CCCn1ccnc1[N+](=O)[O-]",
    "Result": "> 100 µM"
  },
  {
    "Molecule": "O=C1/C(=C/c2ccc([N+](=O)[O-])cc2)COc2ccc(O)c(O)c21",
    "Result": "6.45 µM"
  },
  {
    "Molecule": "CC1(C)CCc2ccc(OCCC(=O)O)cc2O1",
    "Result": "> 100 µM"
  },
  {
    "Molecule": "COc1ccc(/C=c2/sc3n(c2=O)C(c2ccccc2)C2(O)CCCCC2N=3)cc1 (stereo not drawn)",
    "Result": "> 12.5 µM"
  },
  {
    "Molecule": "CC(=O)N1[C@H](C(=O)O)CS[C@H]1c1ccncc1",
    "Result": "> 100 µM"
  },
  {
    "Molecule": "CN(C)CCCNC1=C(Cl)C(=O)c2ccccc2C1=O",
    "Result": "5.84 µM"
  },
  {
    "Molecule": "O=C(CSC(=S)N1CCCCC1)Nc1nc2c(s1)CCCC2",
    "Result": "33.8 µM"
  },
  {
    "Molecule": "NC1CC(=O)c2cscc21 (stereo not drawn)",
    "Result": "33.3 µM"
  },
  {
    "Molecule": "COc1cc(/C=C/c2cc(/C=C/c3ccc(O)c(OC)c3)n(C(=O)Nc3ccc(F)cc3)n2)ccc1O",
    "Result": "1.93 µM"
  },
  {
    "Molecule": "CN1Cc2ccccc2S(=O)(=O)n2cccc2C1=O",
    "Result": "> 100 µM"
  },
  {
    "Molecule": "Clc1cccc(Cc2cn3cc(-c4ccccc4)nc3s2)c1Cl",
    "Result": "> 100 µM"
  },
  {
    "Molecule": "C1=CC2C=CC(C=C1)P2c1ccccc1 (stereo not drawn)",
    "Result": "> 100 µM"
  },
  {
    "Molecule": "CCOC(=O)C1=C(C)CC2C(=O)OC(=O)C2C1(C)C (stereo not drawn)",
    "Result": "> 100 µM"
  },
  {
    "Molecule": "O=c1c2cccnc2n2n1Cc1ccccc1C2",
    "Result": "> 100 µM"
  },
  {
    "Molecule": "Cc1cccc2oc3c(CC(=O)O)cccc3c(=O)c12",
    "Result": "> 100 µM"
  },
  {
    "Molecule": "O=C(NCCNc1nccc(-c2c(-c3cccc(O)c3)nc3sccn23)n1)c1ccccc1O",
    "Result": "> 29.4 µM"
  },
  {
    "Molecule": "NC1CCC(Nc2nc(NCc3ccc(-c4ccco4)nc3)c3ncn(C4CCCC4)c3n2)CC1 (stereo not drawn)",
    "Result": "0.0729 µM"
  },
  {
    "Molecule": "CN(CC(=O)O)S(=O)(=O)c1ccc2ccccc2c1",
    "Result": "> 100 µM"
  },
  {
    "Molecule": "CC(C)c1ccc(C(C)C(=O)N(CC2=C(C(C)c3ccccn3)c3ccccc3C2)C(C)C)cc1 (stereo not drawn)",
    "Result": "5.44 µM"
  },
  {
    "Molecule": "COc1c2ccoc2c(/C=C/C=O)c2oc(-c3ccccc3)cc(=O)c12",
    "Result": "5.62 µM"
  },
  {
    "Molecule": "COc1ccc(/C=C\\c2cc(OC)c3c(c2)OCO3)c(O)c1O",
    "Result": "7.72 µM"
  },
  {
    "Molecule": "O=C(OCc1ccccc1)N(CCCCN(CCCNC(=O)C(F)(F)F)C(=O)OCc1ccccc1)CCCNC(=O)C(F)(F)F",
    "Result": "> 100 µM"
  },
  {
    "Molecule": "C=CCc1cc(OC)c2c(c1)C(O)CC(c1ccc(OC)c(OC)c1)O2 (stereo not drawn)",
    "Result": "> 100 µM"
  }
]

---

- Test system: UACC-62 melanoma
- Test Protocol: NCI tumour cell line growth inhibition, 48 h; in the data active = GI50 below about 0.43 µM; inactive = the rest
Possible outcomes: active, inactive

[
  {
    "Compound": "CN(C)CCCNC1=C(Cl)C(=O)c2ccccc2C1=O",
    "Assayed Target": "UACC-62 melanoma",
    "Group Label": "inactive"
  },
  {
    "Compound": "O=C(Nc1ccc(F)cc1F)c1cc(I)ccc1O",
    "Assayed Target": "UACC-62 melanoma",
    "Group Label": "inactive"
  },
  {
    "Compound": "Clc1cccc(Cc2cn3cc(-c4ccccc4)nc3s2)c1Cl",
    "Assayed Target": "UACC-62 melanoma",
    "Group Label": "inactive"
  },
  {
    "Compound": "CCc1ccc2c(c1)C(=O)c1c-2n(CCCBr)c(=O)c2cc([N+](=O)[O-])ccc12",
    "Assayed Target": "UACC-62 melanoma",
    "Group Label": "inactive"
  },
  {
    "Compound": "COc1ccc(-c2cc(-c3ccc(Nc4nc(Nc5ccccc5)nc(Nc5ccc(Cl)cc5)n4)cc3)nc(N)c2C#N)cc1",
    "Assayed Target": "UACC-62 melanoma",
    "Group Label": "inactive"
  },
  {
    "Compound": "CC(C)c1ccc(C(C)C(=O)N(CC2=C(C(C)c3ccccn3)c3ccccc3C2)C(C)C)cc1 (centres undefined)",
    "Assayed Target": "UACC-62 melanoma",
    "Group Label": "inactive"
  },
  {
    "Compound": "CN(C)c1ccc(-c2cc(-c3ccc(Nc4nc(Nc5ccc(Cl)cc5)nc(Nc5ccc(Cl)cc5)n4)cc3)no2)cc1",
    "Assayed Target": "UACC-62 melanoma",
    "Group Label": "inactive"
  },
  {
    "Compound": "O=C(NCCNc1nccc(-c2c(-c3cccc(O)c3)nc3sccn23)n1)c1ccccc1O",
    "Assayed Target": "UACC-62 melanoma",
    "Group Label": "active"
  },
  {
    "Compound": "Fc1ccc(Nc2ncnc3ccc(-c4cnc5[nH]ccc5c4)cc23)cc1Cl",
    "Assayed Target": "UACC-62 melanoma",
    "Group Label": "inactive"
  }
]

---

Catalogue of molecules with associated TGI
- Test system: OVCAR-8 ovarian
- Test Protocol: NCI tumour cell line growth inhibition, 48 h

[
  {
    "Molecule": "CO[C@]1(c2ccc([N+](=O)[O-])cc2)Oc2ccccc2C(=O)[C@@]1(Nc1ccc(C=O)cc1)OC",
    "Modifier": ">",
    "TGI [µM]": 10
  },
  {
    "Molecule": "NC(=O)C(=CNC(N)=S)C(N)=O",
    "Modifier": ">",
    "TGI [µM]": 100
  },
  {
    "Molecule": "O=C(Nc1ccccc1)OCCN=C1c2ccccc2C(Br)C(Br)c2ccccc21 (stereo not given)",
    "Modifier": "=",
    "TGI [µM]": 13
  },
  {
    "Molecule": "Cc1cc(=O)n2[nH]c(-c3ccc(C(C)(C)C)cc3)cc2n1",
    "Modifier": ">",
    "TGI [µM]": 100
  },
  {
    "Molecule": "CN(C)CCNc1ccc([N+](=O)[O-])c2sc3ccccc3c(=O)c12",
    "Modifier": "=",
    "TGI [µM]": 19.9
  }
]

---

- System: SNB-19 CNS
- Test Protocol: NCI tumour cell line growth inhibition, 48 h
Collected TGI values appear next to each entry.
Reported Property: TGI

[
  {
    "Compound": "CC1(C)COC(c2ccc(C(F)(F)F)cc2C(O)c2ccc3ccccc3c2)=N1 (stereo not drawn)",
    "Reported Property": "TGI",
    "Result": "> 100 µM"
  },
  {
    "Compound": "Cc1ccc2c(c1)[nH]c(=S)n2C=C(C(N)=O)C(N)=O",
    "Reported Property": "TGI",
    "Result": "> 100 µM"
  },
  {
    "Compound": "O=C(NC(=S)Nc1ccc(Br)cc1)c1ccc2c(c1)Sc1ccccc1S2",
    "Reported Property": "TGI",
    "Result": "54.4 µM"
  },
  {
    "Compound": "CC1OC(OC2C(OC(=O)[C@]34CCC(C)(C)C[C@H]3C3=CC[C@@H]5[C@@]6(C)CC[C@H](OC7OC(C(=O)O)C(O)C(O)C7O)C(C)(C)[C@@H]6CC[C@@]5(C)[C@]3(C)C[C@H]4O)OCC(O)C2O)C(O)C(O)C1OC1OCC(OC2OCC(O)C(O)C2O)C(O)C1O (stereo partly drawn)",
    "Reported Property": "TGI",
    "Result": "18.4 µM"
  },
  {
    "Compound": "O=C(Nc1ccc(F)cc1F)c1cc(I)ccc1O",
    "Reported Property": "TGI",
    "Result": "> 100 µM"
  },
  {
    "Compound": "COc1ccc2c(c1)C(=O)/C(=C/c1ccc(OCC(=O)Nc3nccs3)cc1)O2",
    "Reported Property": "TGI",
    "Result": "> 65.7 µM"
  },
  {
    "Compound": "COc1ccc(-n2/c(=N/C(=S)N(C)C)ss/c2=N\\C(=S)N(C)C)cc1",
    "Reported Property": "TGI",
    "Result": "45.5 µM"
  },
  {
    "Compound": "COc1ccc(C2=CSc3cc(Cl)c(C)cc3S(=O)(=O)N2C(C)=O)cc1",
    "Reported Property": "TGI",
    "Result": "> 100 µM"
  }
]
